- assayed.target: PRKCA (human) (UniProt P17252)
- experiment.summary: radiometric filter-binding kinase assay, Kinase HotSpot
- measurement.context: compound 0.5 µM; ATP 10 µM
Measured residual activity values are reported for all entries that follow.
Reply with just the number (in %).

A selection of reference data follows.
O=S(=O)(c1cccc2cnccc12)N1CCCNCC1
94.8
COc1ccc2c(c[n+](C)c3c4cc5c(cc4ccc23)OCO5)c1OC
78.9
Nc1ncnc2[nH]nc(Nc3ccc(F)cc3)c12
98
CC(C)N(CCC(=O)c1ccc2ccccc2c1)Cc1ccccc1
107
O=C1NC(=O)/C(=C/c2ccc3c(c2)OC(F)(F)O3)S1
106

Incoming: Please give the measured residual activity for this molecule: "c1ccc(-c2n[nH]c3c2oc2ccccc23)cc1"
Outgoing: 92.9

Incoming: One more molecule: "CNc1cc2c(Nc3cccc(Br)c3)ncnc2cn1"
Outgoing: 101

Incoming: One more molecule: "Nc1ncnc2c1c(-c1ccc(Oc3ccccc3)cc1)cn2C1CCCC1"
Outgoing: 106

Incoming: One more molecule: "c1ccc(-c2n[nH]cc2-c2ccnc3ccccc23)nc1"
Outgoing: 98.5

Incoming: One more molecule: "Cc1ccc(S(=O)(=O)/C=C/C#N)cc1"
Outgoing: 70.6

Incoming: One more molecule: "CC[n+]1c(/C=C/N(C)c2ccccc2)n(-c2ccccc2)c2ccc(-c3nc4ccccc4s3)cc21"
Outgoing: 77.7

Incoming: One more molecule: "COc1cc2ncnc(Nc3cccc(Cl)c3)c2cc1OC"
Outgoing: 111

###

Measured residual activity values are reported for all entries that follow.
- assayed.target: ZAP70 (human) (UniProt P43403)
- Sequence (P43403 whole entry, looked up): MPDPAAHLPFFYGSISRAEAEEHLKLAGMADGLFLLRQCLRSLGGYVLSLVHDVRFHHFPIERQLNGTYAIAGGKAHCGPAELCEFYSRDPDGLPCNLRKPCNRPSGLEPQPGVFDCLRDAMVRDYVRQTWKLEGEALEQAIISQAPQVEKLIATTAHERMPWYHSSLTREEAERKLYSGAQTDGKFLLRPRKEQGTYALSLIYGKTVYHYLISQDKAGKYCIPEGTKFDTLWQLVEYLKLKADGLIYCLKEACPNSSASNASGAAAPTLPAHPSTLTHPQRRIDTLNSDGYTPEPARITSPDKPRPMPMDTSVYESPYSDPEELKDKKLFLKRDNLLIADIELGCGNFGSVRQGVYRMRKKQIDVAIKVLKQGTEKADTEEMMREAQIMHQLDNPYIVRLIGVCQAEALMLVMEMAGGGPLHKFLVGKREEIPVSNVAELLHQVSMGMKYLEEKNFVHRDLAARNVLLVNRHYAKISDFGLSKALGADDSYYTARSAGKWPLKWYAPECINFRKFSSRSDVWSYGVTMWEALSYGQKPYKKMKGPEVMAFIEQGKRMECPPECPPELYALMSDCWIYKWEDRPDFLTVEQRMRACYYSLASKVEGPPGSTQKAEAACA
- experiment.summary: radiometric filter-binding kinase assay, Kinase HotSpot
- measurement.context: compound 0.5 µM; ATP 10 µM

O=c1cc(N2CCOCC2)oc2c1ccc1ccccc12
103%
N#CC(C#N)=C(N)/C(C#N)=C/c1ccc(O)cc1
96%
O=C1NC(=O)/C(=C/c2ccc3c(c2)OC(F)(F)O3)S1
99.2%

Incoming: Please give the measured residual activity for this compound: "COc1ccc(COc2ccc(Cc3cnc(N)nc3N)cc2OC)cc1"
Outgoing: 94.3%

Incoming: One more compound: CO[C@H]1CC2CC[C@@H](C)[C@@](O)(O2)C(=O)C(=O)N2CCCC[C@H]2C(=O)OC([C@H](C)C[C@@H]2CC[C@@H](O)[C@H](OC)C2)CC(=O)[C@H](C)/C=C(\C)[C@@H](O)[C@@H](OC)C(=O)[C@H](C)C[C@H](C)/C=C/C=C/C=C/1C (stereo partly specified)
Outgoing: 99.2%

Incoming: One more compound: "O=C1Nc2ccc(Cl)cc2/C1=C/c1cc(Cl)c(O)c(Cl)c1"
Outgoing: 95%

Incoming: One more compound: "Nc1ncnc2c1c(-c1ccc(Oc3ccccc3)cc1)cn2C1CCCC1"
Outgoing: 102%

Incoming: One more compound: "Cc1ccc(Nc2nccc(N(C)c3ccc4c(C)n(C)nc4c3)n2)cc1S(N)(=O)=O"
Outgoing: 92.6%

Incoming: One more compound: "O=S(=O)(c1cccc2cnccc12)N1CCCNCC1"
Outgoing: 108%

Incoming: One more compound: "CCCC(=O)Oc1ccc2[nH]c(C(=O)c3cc4ccccc4[nH]3)cc2c1"
Outgoing: 100%

Incoming: One more compound: "Nc1ccc2ncnc(NCCc3ccc(Oc4ccccc4)cc3)c2c1"
Outgoing: 93.2%

Incoming: One more compound: "CC(=O)c1ccc(N2CCOCC2)cc1O"
Outgoing: 99.5%

Incoming: One more compound: "CCN(CC)CCNC(=O)c1c(C)[nH]c(/C=C2\C(=O)Nc3ccc(F)cc32)c1C"
Outgoing: 97.2%

Incoming: One more compound: "Oc1cccc(-c2nc(N3CCOCC3)c3oc4ncccc4c3n2)c1"
Outgoing: 91.4%

Incoming: One more compound: "N#C/C(=C(/N)Sc1ccc(N)cc1)c1ccccc1C(F)(F)F"
Outgoing: 102%

Incoming: One more compound: "Nc1cccc(-c2cc3c(Oc4cccc(O)c4)ncnc3[nH]2)c1"
Outgoing: 97.5%

Incoming: One more compound: "O=C1NC(=O)c2c1c1c3ccccc3n3c1c1c2c2ccccc2n1C1CCC3O1"
Outgoing: 88.4%

Incoming: One more compound: "CCN(CC)CCNC(=O)c1c(C)[nH]c(/C=C2\C(=O)Nc3ccc(Cl)cc32)c1C"
Outgoing: 91.2%

Incoming: One more compound: "CCOC(=O)c1c(C)[nH]c(/C=C2\C(=O)Nc3ccccc32)c1C"
Outgoing: 98.8%

Incoming: One more compound: "c1ccc(-c2n[nH]c3c2oc2ccccc23)cc1"
Outgoing: 89%

Incoming: One more compound: "CCN(CC)C(=O)c1ccc(Nc2nc(OCC3CCCCC3)c3nc[nH]c3n2)cc1"
Outgoing: 94%
